Origin of measurements: PubChem BioAssay (NCI)

Tested on: PC-3 prostate
Assay: NCI-60 one-dose screen, 48 h (100 = growth as untreated, 0 = no growth, -100 = all killed)
Settings: 10 µM unless noted
Compounds without any hit were thinned out: in the full panel of roughly 83,000, 20% have a hit.
Collected growth values appear next to each entry.
Unit % implied. Number only.

Field: example entries. Status: answers known.
CCC(/C=C(C)/C=C/C(=O)c1c(O)c(-c2ccc(O)cc2)c[nH]c1=O)CO (stereo not given) :: 27.7
C=CC(O)CN1CC1CC (stereo not given) :: 98.1
S=P(N1CCCCCC1)(N1CC1)N1CC1 :: 93.7
CC1(C)N=C(N)N=C(N)N1c1ccc(CNC(=O)Nc2ccc(S(=O)(=O)F)c(Cl)c2)c(Cl)c1 :: 4.03

Please look at this compound and report its growth: "O=C1NC(=O)C(Cc2ccccc2)(Cc2ccccc2)C(=O)N1"
105

* * *

Listed below: growth values for each entry.
Tested on: SNB-75 CNS
Assay: NCI-60 one-dose screen, 48 h (100 = growth as untreated, 0 = no growth, -100 = all killed)
Conditions: 10 µM unless noted
About 83,000 compounds went through this panel and 20% of them were active in at least one assay; those are over-represented in the sample as a whole.
Supply the numeric figure in %, leaving out any unit text.

Recorded results for 3 molecules are shown here.
CC(C)(O)/C=C/C(=O)[C@](C)(O)[C@H]1[C@H](O)C[C@@]2(C)[C@@H]3CC=C4[C@@H](C=C(O)C(=O)C4(C)C)[C@]3(C)C(=O)C[C@]12C :: -86.6
CCCCNCCc1ccccn1 :: 104
C[CH2][Pb]([CH2]C)([CH2]C)[O]C(=O)COC :: -4.45

Identify the reported growth for the following entry. "FC(F)=C(F)c1ccccc1"
88.8

Give the value of growth reported for the following: "O=c1cc[nH]c(=O)o1"
84.7

Annotate the molecule O=[As]c1ccc(C(=O)c2ccc(Oc3ccccc3)cc2)cc1 (configuration not stated) with its measured growth.
-92

Please indicate growth recorded for "Nc1ccc(N)c2c1Oc1ccccc1O2"
108

Read the entry "C[C@]12CC[C@@H]3C4=C(CC[C@H]3[C@@H]1CC[C@@H]2O)CC(=O)CC4" and write its reported growth.
101

Answer with the recorded growth for the molecule listed here: "Oc1ccc(Br)cc1CN1CCN(Cc2ccc(Cl)cc2)CC1"
51.5

Provide only the value of recorded growth for "CC(/C=N/N=C(N)N)=N/N=C(N)N"
71.5

Dear colleague, please send me the reported growth for NC(=O)C(Br)CBr (configuration not stated) when you can.
103

Fill in growth for record "O=C(CI)Nc1ccc(Br)cc1"
96.7

* * *

Test system: HL-60(TB) leukemia
Experiment: NCI-60 one-dose screen, 48 h
Details: 10 µM unless noted
The panel holds about 83,000 compounds, 20% with a hit somewhere; the sample as a whole holds those more often. Active and inactive are the calls of the source. Rule for the calls: active = growth percent below 10; inactive = the rest.
Returns: one label drawn from 1 for active, -1 for inactive

Illustrative cases are given below, each with its answer.
C(=C(\C1=NCCN1)n1ccc2ccccc21)/c1ccccc1 :: -1
O=C(Nc1cccc(Cl)c1)c1cc(N=Nc2ccc([N+](=O)[O-])cc2Cl)ccc1O :: -1

I would be grateful if you could indicate the recorded call for "C=CCc1c2c(c(OC)c3ccoc13)C(=O)/C(=C/c1ccccc1OC)O2" .
-1

For this compound, state the assay outcome: "C/C(=N\NC(=O)Cn1c(-c2ccc(S(C)(=O)=O)cc2)nc2ccccc21)c1ccc(Cl)cc1"
-1

Kindly provide the recorded test outcome for the following compound: "Oc1ccc(Nc2nccc(-c3ccc4ccccc4c3)n2)cc1"
1

* * *

Tested on: HL-60(TB) leukemia
Experiment: NCI-60 one-dose screen, 48 h (100 = growth as untreated, 0 = no growth, -100 = all killed)
Settings: 10 µM unless noted
Compounds without any hit were thinned out: in the full panel of roughly 83,000, 20% have a hit.
measurement kind: growth (%)
Unit % implied. Number only.

C=CC[P+](c1ccccc1)(c1ccccc1)c1ccccc1 :: 4.03
Cc1cc(NC(=O)Nc2cccc3ccccc23)no1 :: 99.5
Cc1cc(NC(=O)COC(=O)c2sc3cc(F)ccc3c2Cl)no1 :: 107
N#Cc1c2c(nc3n[nH]c(N)c13)CCCC2 :: 87.3
O=C(CSc1nnc2sc(Nc3cccc(Cl)c3)nn12)c1ccc(F)cc1 :: 82.7

Return value of growth for input "COc1cc2ncnc(Nc3ccc(S(=O)(=O)Nc4cc(C)on4)cc3)c2cc1OCCCN1CCN(c2ccc(F)cc2)CC1" , no commentary.
112

Find the measured growth of "CSc1ccc(-c2ccccc(=O)c2O)cc1" and report it.
-40.1

Annotate the molecule "Clc1ccc(-c2cnc3c(-c4ccnc(N5CCNCC5)c4)cnn3c2)cc1" with its measured growth.
-33.7

Look up and report measured growth for this entry: "O=C(CI)NCCNc1cccc2c(S(=O)(=O)O)cccc12"
105

Input "CC(=O)N(C)N=Nc1ccc(C)cc1" , output reported growth.
117

Give the measured growth for "CC(C)[C@@H](C)/C=C/[C@@H](C)[C@H]1CCC2=C3C=CC4=CC(=O)CC[C@]4(C)[C@H]3CC[C@@]21C"
93.9

* * *

We begin with a simple list: items and their reported growth.
Test system: MDA-MB-231 breast
Assay: NCI-60 one-dose screen, 48 h (100 = growth as untreated, 0 = no growth, -100 = all killed)
Details: 10 µM unless noted
About 83,000 compounds went through this panel and 20% of them were active in at least one assay; those are over-represented in the sample as a whole.
Use % as the unit, but write only the number.

Below, each entry is followed by its recorded growth result.
CO[C@@H](c1ccccc1Cl)[C@H](C)OC(N)=O :: 102
CC(CC(C#N)(c1ccccc1)c1ccccc1)N1CCOCC1 (stereo not given) :: 94.4
NC(=O)OCC(CO)(c1ccccc1)c1ccccc1 :: 114

Provide growth value for the following molecule: CC(=O)O[C@H]1CCC2C3CCC4=C/C(=N/O)CCC4(C)C3CCC21C (stereo not given in full)
110

Write down growth measured for item "CCOCC1(CCc2ccccc2)C(=O)NC(=S)NC1=O"
100

Give me measured growth, please, for this molecule: "N#[N+]c1cnc([O-])[nH]c1=O"
95.5

Fill in reported growth for this entry: "CCOP(=O)(OCC)Oc1ccc(Sc2ccc(OP(=O)(OCC)OCC)cc2)cc1"
119

* * *

Below, each of the compounds is paired with its reported growth value.
Tested on: HL-60(TB) leukemia
Assay: NCI-60 one-dose screen, 48 h (100 = growth as untreated, 0 = no growth, -100 = all killed)
Details: 10 µM unless noted
The panel holds about 83,000 compounds, 20% with a hit somewhere; the sample as a whole holds those more often.
Report the value in % with no unit label.

Example entries and their recorded answers appear below.
CCCC(C)c1ccc(OCCCCCCN2CCNCC2)cc1 (stereo not given) :: -44.9
COc1ccc(/C=C(\c2cc(OC)c(OC)c(OC)c2)c2nnc(-c3cccs3)o2)cc1 :: 92
OC1CCCN(Cc2ccccc2)C1 (stereo not given) :: 114
O=c1c2cc(F)ccc2sc2c(NCCCNCCO)nc3ccccc3c12 :: 6.49
C=C1C(=O)O[C@H]2[C@H]1CCC(/C=N/c1ncc(Br)cc1N)=C\CC[C@@]1(C)O[C@@H]21 :: -21.4

Consider the compound "COc1ccc(NC(=S)N/N=C/c2ccccc2SSCCC(=O)OC[C@H]2O[C@H](O)[C@H](O)[C@@H](O)[C@@H]2O)cc1" . State its measured growth.
75.1

Determine its reported growth: "CCOC(=O)c1c(-c2ccc(C)cc2)c(C#N)c(=O)n(-c2cccc(C(F)(F)F)c2)c1N"
102

Give growth for the following compound: "O=C(COc1cccc(/C=C2\Oc3ccc4ccccc4c3C2=O)c1)c1ccc(Cl)cc1"
107

Return reported growth. Input compound: "CNC(=O)c1cc(Oc2ccc(NC(=O)c3nc(S(C)(=O)=O)n(C)c3-c3ccc(F)cc3)cc2)ccn1"
69.8

* * *

System: SK-MEL-28 melanoma
Experiment: NCI-60 one-dose screen, 48 h (100 = growth as untreated, 0 = no growth, -100 = all killed)
Conditions: 10 µM unless noted
Compounds without any hit were thinned out: in the full panel of roughly 83,000, 20% have a hit.
measurement kind: growth (%)
Please respond with the number in % and leave the unit unwritten.

Some solved cases for reference:
Nc1ccc(N)c2c1Oc1ccccc1O2 :: 108
CCN(CC)c1ccc(C=C2C(=O)NC(=S)NC2=O)cc1 :: 103
CC12CCC(=O)C=C1CCC1C2CCC2(C)C(C(=O)COC(=O)Cc3ccc(N(CCCl)CCCl)cc3)CCC12 (stereo unspecified) :: 104
CNC(=O)Oc1ccccc1 :: 86.2

Moving on to another compound below.
# return growth for CNC(C)Cc1ccccc1 (stereo unspecified) (tested in a mixture with another compound) , test system: SK-MEL-28 melanoma
105

* * *

Test system: HL-60(TB) leukemia
Assay: NCI-60 one-dose screen, 48 h (100 = growth as untreated, 0 = no growth, -100 = all killed)
Conditions: 10 µM unless noted
About 83,000 compounds went through this panel and 20% of them were active in at least one assay; those are over-represented in the sample as a whole.
measurement kind: growth (%)
Number in %, nothing else.

Cc1c2cc[nH]c(=O)c2c(C)c2c1[nH]c1ccc(OC(=O)c3ccccc3)cc12 :: 51.3
CCN(CC)CCCNc1c2ccc(Cl)cc2nc2ccc(OC)cc12 :: -50.3
CC[C@@H](C(=O)[C@@H](C)[C@@H](O)[C@H](C)[C@@H]1O[C@@H]([C@@H](CC)C(=O)O)CC[C@@H]1C)C1O[C@]2(C=CC(=O)[C@]3(CC[C@@](C)([C@H]4CC[C@](O)(CC)[C@H](C)O4)O3)O2)[C@H](C)C[C@@H]1C (stereo partly specified) :: -32.7
CCOC(=O)C1(CC(C)C)CCOC1=O (stereo unspecified) :: 96.9

Indicate the recorded growth value for this compound: "CN(C)c1ccc(/C=N/N=C(\C#N)[S][Sn]([Cl])([c]2ccccc2)[c]2ccccc2)cc1"
0.861

State its growth for this compound: "COC(=O)c1c[n+]([O-])ccc1OC"
106

Supply growth value. Item: "CC(C)(C#N)c1cc(C(=O)Nc2cc(Nc3ncccc3-c3ncnc4nc[nH]c34)ccc2F)cc(C(F)(F)F)c1"
35.3

Give reported growth value for CC(=O)[O][Hg][CH2]C1(C)COC(C)([CH2][Hg][O]C(C)=O)CO1 (stereo unspecified)
74.4

Please give the documented growth of "c1ccc2c(c1)Sc1ccccc1S2"
107

Tell me measured growth for "COc1ccc(-c2nc3ccccn3c2-c2nnc(-c3cc(OC)c(OC)c(OC)c3)o2)cc1" please.
85.6

Identify measured growth associated with "Cc1ccc(/C=C/C(=O)c2cccc(OCCCOc3cccc(C(=O)/C=C/c4ccc(C)cc4)c3)c2)cc1"
57.6

Report growth, nothing else, for this compound: O=C(/C=C/C12c3ccccc3C(c3ccccc31)C1C(=O)N(c3ccccc3)C(=O)C12)c1ccc(Cl)cc1 (stereo unspecified)
10.7

Output measured growth for this item: "C#C[C@]1(O)CC[C@H]2[C@@H]3CC=C4c5nc(Nc6ccccc6[N+](=O)[O-])sc5CC[C@]4(C)[C@H]3CC[C@@]21C"
77.7
